Biological target: CDK4/cyclin D3 (Homo sapiens, UniProt P11802)
Sequence (P11802 whole entry, species assumed): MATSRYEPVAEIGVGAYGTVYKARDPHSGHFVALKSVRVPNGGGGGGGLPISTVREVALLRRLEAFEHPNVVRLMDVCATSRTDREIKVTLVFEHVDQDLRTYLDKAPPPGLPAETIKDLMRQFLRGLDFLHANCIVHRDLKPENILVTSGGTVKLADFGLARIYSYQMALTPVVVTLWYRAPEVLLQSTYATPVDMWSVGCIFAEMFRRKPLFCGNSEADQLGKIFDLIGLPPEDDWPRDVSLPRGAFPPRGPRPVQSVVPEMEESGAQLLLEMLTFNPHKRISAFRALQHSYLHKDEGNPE
Sequence (P30281 whole entry partner, species assumed): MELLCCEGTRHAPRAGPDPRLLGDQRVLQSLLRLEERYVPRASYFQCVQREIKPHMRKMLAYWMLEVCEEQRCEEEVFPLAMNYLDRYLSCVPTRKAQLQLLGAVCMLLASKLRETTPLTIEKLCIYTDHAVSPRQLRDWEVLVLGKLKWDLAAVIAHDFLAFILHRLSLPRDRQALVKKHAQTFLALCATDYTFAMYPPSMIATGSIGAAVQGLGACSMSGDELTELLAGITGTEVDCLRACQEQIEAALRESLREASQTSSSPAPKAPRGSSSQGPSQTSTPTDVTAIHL
Experiment: Kinase activity assay, Caliper Mobility Shift Assay, CDK4/cyclin D3
Conditions: 10 nM kinase, ATP 250 μM, 150 minutes at room temperature
Structures can show the parent of a compound that is named as a salt.
Recorded metric: pIC50
Numbers only, as −log10 of the molar value.

Worked set:
Compound | pIC50
CC(C)c1noc2ccc3cnc(Nc4ccc(N5CCC(CCCO)CC5)cc4)nc3c12 | 7.00
CC(C)c1noc2ccc3cnc(Nc4cccc(S(N)(=O)=O)c4)nc3c12 | 8.70
CC(C)c1noc2c1-c1nc(Nc3ccc(N4CCNCC4)cn3)ncc1CC2 [Compound I-24, hydrochloride] | 7.89

Okay, here is my list. What is pIC50 for each of these?
1. CC(C)c1noc2c1-c1nc(Nc3ccc(N4CCN(C)CC4)c(F)c3)ncc1CC2
2. CC(C)c1noc2ccc3cnc(Nc4ccc(N5CCC(N(C)C)CC5)cn4)nc3c12
3. CC(C)c1noc2ccc3cnc(Nc4ccc(OCCN(C)C)cc4)nc3c12

Reply:
1. 8.22
2. 8.40
3. 8.70

====

Molecular target: CDK4/cyclin D3 (Homo sapiens, UniProt P11802)
Test: Kinase activity assay, Caliper Mobility Shift Assay, CDK4/cyclin D3
Assay type: biochemical
Conditions: 10 nM kinase, ATP 250 μM, 150 minutes at room temperature
What pIC50 was measured for each of the following?
Answers are plain numbers, as −log10 of the molar value.

Structure smiles | Assayed target | Reported measurement
CC(C)Cc1noc2ccc3cnc(Nc4ccc(N5CCNCC5)cn4)nc3c12 | CDK4/cyclin D3 (Homo sapiens, UniProt P11802) | 8.22

Okay, here is my list. What is pIC50 for each of these?
1. CCN1CCN(c2cnc(Nc3ncc4ccc5onc(C(C)C)c5c4n3)cc2C)CC1
2. CCN1CCN(Cc2ccc(Nc3ncc4ccc5onc(C(C)C)c5c4n3)nc2)CC1
3. CC(C)CN1CCN(c2ccc(Nc3ncc4ccc5onc(C(C)C)c5c4n3)nc2)CC1
4. CCN1CCN(c2ccc(Nc3ncc4c(n3)-c3c(C(C)C)noc3CC4)nc2)CC1
5. CC(C)c1noc2ccc3cnc(Nc4ccc(N5CCN(C6CC6)CC5)cn4)nc3c12
6. CC(C)Cc1noc2ccc3cnc(Nc4ccc(N5CCOCC5)cn4)nc3c12

Reply:
1. 7.09
2. 8.05
3. 8.10
4. 7.96
5. 7.68
6. 7.33
